This collection of values is drawn from paper PMC6478789.

- Experimental system: GCN5L2 (Homo sapiens)
- Sequence (Q92830 whole entry, species assumed): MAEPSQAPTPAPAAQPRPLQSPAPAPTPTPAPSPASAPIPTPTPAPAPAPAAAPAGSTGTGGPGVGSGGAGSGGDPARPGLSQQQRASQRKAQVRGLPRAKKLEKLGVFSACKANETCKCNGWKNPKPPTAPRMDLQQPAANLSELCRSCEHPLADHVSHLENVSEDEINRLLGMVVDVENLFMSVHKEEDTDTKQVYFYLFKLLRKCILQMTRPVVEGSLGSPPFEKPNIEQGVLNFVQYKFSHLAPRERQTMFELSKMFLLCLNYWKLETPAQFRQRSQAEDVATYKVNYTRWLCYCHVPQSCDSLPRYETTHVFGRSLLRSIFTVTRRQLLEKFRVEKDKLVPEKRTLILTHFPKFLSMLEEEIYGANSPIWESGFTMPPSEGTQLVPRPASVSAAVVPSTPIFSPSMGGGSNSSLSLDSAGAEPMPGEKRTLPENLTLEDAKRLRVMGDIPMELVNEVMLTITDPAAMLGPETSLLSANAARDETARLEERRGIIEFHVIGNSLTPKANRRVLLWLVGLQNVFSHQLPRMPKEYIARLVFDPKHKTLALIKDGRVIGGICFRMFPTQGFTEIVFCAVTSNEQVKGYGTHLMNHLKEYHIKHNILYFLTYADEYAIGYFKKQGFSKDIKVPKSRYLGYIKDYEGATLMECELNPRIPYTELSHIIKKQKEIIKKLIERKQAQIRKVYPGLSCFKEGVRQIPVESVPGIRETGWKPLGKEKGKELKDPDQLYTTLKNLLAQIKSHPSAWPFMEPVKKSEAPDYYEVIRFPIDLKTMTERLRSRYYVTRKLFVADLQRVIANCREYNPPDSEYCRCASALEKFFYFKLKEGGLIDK
- Protocol notes: Histone acetyltransferase (HAT) activity assay;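 also: selectivity screen of BRD probe compounds across a panel of histone acetyltransferases, HAT activity in % with compound at 1 or 10 µM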
- Assay type: biochemical
- Condition description: 1µM; read-out: HATs Activity (%)
# activity at 1 µM listing for each entry below
Measurement type: activity at 1 µM (%)

| Molecule | Scale unit | Endpoint value |
| --- | --- | --- |
| CO[C@H]1CNC[C@@H](OCC2CCC(F)(F)CC2)[C@@H]1Nc1ncc(-c2cncc(C)c2)c2cc(C)c(=O)[nH]c12 [GSK8814] | % | 102 |
| COc1cc(Cl)c(C(=O)N[C@@H](CN[C@H]2CC[C@@H](N)CC2)Cc2ccc(C#N)cc2)cc1-c1ccc(CN[C@H](C)c2ccc(C)cc2)o1 [BAY-850] | % | 99 |
| Cc1cc2c(cc1N1C(=O)c3cccc4c(CCCO)ccc(c34)C1=O)n(C)c(=O)n2C [BAY-299] | % | 99 |
| Cc1c(NC(=O)c2cc(C(N)=O)nc3cc(F)ccc23)c(C(F)(F)F)nn1Cc1ccc(C(C)(C)C)cc1 [BAY-588] | % | 94 |
